Data credit: PubChem BioAssay AID463187

Quick reference for inhibition among some compounds
# measured target: Tyrosine-protein kinase HCK (Homo sapiens)
# assay text: inhibitors of Nef-activated human Hck kinase, primary screen, biochemical, Z-Lyte FRET, 384-well, Hck-YEEI (AID 463187);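 note: 0% = DMSO with Hck plus Nef and 100% = Hck alone without Nef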
# condition details: Recombinant Hck-YEEI plus Nef, Z-Lyte FRET kinase assay; at 20 µM; hits give high values
Screen size: about 220,000 compounds; about 1,500 (0.68%) were called active. The sample holds actives, similar compounds and a random draw of the others, so the mix is not that of the screen.
The answer is to be given in %; state only the numeric part.

>  <compound>
CCOC(=O)c1cc2n(c1N)-c1ccccc1C2=O

>  <quantity measured>
inhibition

>  <readout value>
-1.56

$$$$
>  <compound>
CC(C)n1c(-c2cccs2)nc2ccccc21

>  <quantity measured>
inhibition

>  <readout value>
10.6

$$$$

Challenge: Name the reported inhibition value associated with the compound CCOc1ccccc1C1C(C(=O)OC)=CN(C)C=C1C(=O)OC
Response given: 71.8

Challenge: Request: CCOc1ccc(C2c3[nH]c4ccccc4c3CCN2Cc2cccn2-c2ncccn2)cc1 (configuration not stated)
Response given: 15.4

Challenge: Request: COc1ccc(-c2cc(C(=O)NCCCn3ccnc3)no2)cc1
Response given: -9.96

Challenge: Request: COc1ccc(NC(=O)COc2ccc(C(=O)OCC(=O)N(C)C3CCS(=O)(=O)C3)cc2OC)cc1 (configuration not stated)
Response given: -34.5

Challenge: Request: Cc1c(-c2cccc(Cl)c2)nc2ccccc2c1C(=O)OCC(=O)N(C)C1CCS(=O)(=O)C1 (configuration not stated)
Response given: -3.32

Challenge: Request: Cc1c(NC(=O)/C=C/C(=O)O)cccc1[N+](=O)[O-]
Response given: 0.166

Challenge: Request: Cc1ccc2nc(/C(C#N)=C\c3ccc(OC(=O)c4cccs4)cc3)[nH]c2c1
Response given: 57.1

Challenge: Request: CCc1cccc2c(=O)c(C(=O)NCCCOC)c[nH]c12
Response given: -18.3

Challenge: Request: CCOC(=O)CSc1nc2ccc(C)cc2[nH]1
Response given: 10.3

Challenge: Request: O=[N+]([O-])c1ccccc1N/N=C1\CCc2ccccc21
Response given: -4.18

Challenge: Request: CCN(CC)c1ccc2cc(C(=O)O)c(=O)oc2c1
Response given: 179

Challenge: Request: Cc1ccc(SC(CC(=O)c2ccc(C(C)(C)C)cc2)C(=O)O)cc1 (configuration not stated)
Response given: 73.6

Challenge: Request: Cc1ccc(NC(=S)N2CCCC(c3ccccc3)=N2)cc1
Response given: -10

Challenge: Request: COC(=O)Cn1c(=NC(=O)c2cc(OC)c(OC)c(OC)c2)sc2cc(OC)ccc21
Response given: -1.02

Challenge: Request: Cc1ccc(/C=C/C(=O)Nc2ccc([N+](=O)[O-])c(NC(=O)/C=C/c3ccc(C)o3)c2)o1
Response given: 79.2

Challenge: Request: Cn1cnnc1Sc1ccc(CN2CCN(C3CCCC3)C(CCO)C2)o1 (configuration not stated)
Response given: -5.92

Challenge: Request: Cc1ccc(OCCCC(=O)NC(C)c2ccccc2)c(C)c1 (configuration not stated)
Response given: -1.04

Challenge: Request: COc1ccc(CCn2c(=N)c(C(=O)NCc3ccco3)cc3c(=O)n4cccc(C)c4nc32)cc1
Response given: 7.77

Challenge: Request: COC(=O)C1=CN(C)C=C(C(=O)OC)C1c1ccc(Cl)cc1Cl
Response given: 9.15

Challenge: Request: CN(C(=O)COC(=O)c1cc(-c2ccco2)nc2ccccc12)C1CCS(=O)(=O)C1 (configuration not stated)
Response given: 65.3
